assay.target: Cyclin-dependent kinase 1 (Homo sapiens, UniProt P06493)
Sequence (P06493 whole entry): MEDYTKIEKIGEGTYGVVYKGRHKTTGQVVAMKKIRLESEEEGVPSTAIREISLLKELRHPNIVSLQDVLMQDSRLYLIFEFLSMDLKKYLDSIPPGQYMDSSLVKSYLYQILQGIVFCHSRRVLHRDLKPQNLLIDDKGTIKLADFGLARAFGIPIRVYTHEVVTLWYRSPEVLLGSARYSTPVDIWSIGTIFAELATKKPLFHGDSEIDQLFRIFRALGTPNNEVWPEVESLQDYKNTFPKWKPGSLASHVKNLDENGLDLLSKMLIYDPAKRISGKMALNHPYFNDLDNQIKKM
For each record, write down the corresponding IC50.
Answer with the value and then the unit.

Take a look at these entries with their results.
INSERT INTO measurements (compound, readout_value) VALUES
  ('NS(=O)(=O)c1ccc(Nc2cc(-c3cccc(NC(=O)Nc4cc(C(F)(F)F)ccc4F)c3)n[nH]2)cc1', '794 nM'),
  ('NS(=O)(=O)c1ccc(Nc2cc(-c3ccc(Br)cc3)n[nH]2)cc1', '126 nM'),
  ('NS(=O)(=O)c1ccc(Nc2cc(-c3ccc(O)c(F)c3)n[nH]2)cc1 [GW831091X]', '200 nM');

Give IC50 only, for NS(=O)(=O)c1ccc(Nc2cc(-c3cccc(O)c3)n[nH]2)cc1 [GW831090X] , using Cyclin-dependent kinase 1 (Homo sapiens, UniProt P06493) data. 398 nM

====

assay.target: Cyclin-dependent kinase 2 (Homo sapiens)
endpoint: IC50

INSERT INTO results (compound, endpoint, readout_value) VALUES
  ('NS(=O)(=O)c1ccc(Nc2cc(-c3ccc(O)c(F)c3)n[nH]2)cc1 [GW831091X]', 'IC50', '12.6 nM'),
  ('CN(C)c1ccc(-c2cc(Nc3ccc(S(N)(=O)=O)cc3)[nH]n2)cc1', 'IC50', '> 2000 nM'),
  ('NS(=O)(=O)c1cccc(Nc2cc(-c3ccc(F)cc3)n[nH]2)c1', 'IC50', '871 nM'),
  ('NS(=O)(=O)c1ccc(Nc2cc(-c3ccc([N+](=O)[O-])cc3)n[nH]2)cc1', 'IC50', '0.33 nM');

Consider the additional compound presented here.
Identify the reported IC50 for the following entry. `NS(=O)(=O)c1ccc(Nc2cc(-c3ccc(Br)cc3)n[nH]2)cc1` 10 nM

====

For each record, write down the corresponding pIC50.
assay.target: Cyclin-dependent kinase 2 (Homo sapiens)
Give bare numbers, as −log10 of the molar value.

INSERT INTO results (compound, endpoint, readout_value) VALUES
  ('Nc1cccc(-c2cc(Nc3ccc(S(N)(=O)=O)cc3)[nH]n2)c1', 'pIC50', 6.78),
  ('CS(=O)(=O)Nc1cccc(-c2cc(Nc3ccc(S(N)(=O)=O)cc3)[nH]n2)c1', 'pIC50', 7.97),
  ('NS(=O)(=O)c1ccc(Nc2cc(-c3cccc(Br)c3)n[nH]2)cc1', 'pIC50', 7.63);

Consider the additional compound presented here.
Identify the reported pIC50 for the following entry. NS(=O)(=O)c1ccc(Nc2cc(-c3cccc(O)c3)n[nH]2)cc1 [GW831090X] 8.04
